# Test system: Acinetobacter baumannii
# procedure details: Antibacterial activity against Acinetobacter baumannii measured by Muller-Hinton broth based microdilution assay
# Format: functional
property measured: MIC

Consider the worked cases shown below.
1. O=C1c2cccc3c(N/N=C/c4ccc(OC(F)(F)F)cc4)ccc(c23)C(=O)N1C(CO)CO	16 µg/mL
2. O=C1c2cccc3c(N/N=C/c4cccc(Cl)c4)ccc(c23)C(=O)N1C(CO)CO	64 µg/mL

// next entry
// MIC value for CCCCCCCCn1cc(/C=N/Nc2ccc3c4c(cccc24)C(=O)N(C(CO)CO)C3=O)c2ccccc21 : 64 µg/mL

###

# Test system: Acinetobacter baumannii
# procedure details: Antibacterial activity against Acinetobacter baumannii measured by Muller-Hinton broth based microdilution assay
# Assay type: functional
For each entry below, report its MIC value.
One number for each entry, in µg/mL.

State recorded MIC for all listed compounds.
1. O=C1c2cccc3c(N/N=C/c4ccco4)ccc(c23)C(=O)N1C(CO)CO
2. CCn1c2ccccc2c2cc(/C=N/Nc3ccc4c5c(cccc35)C(=O)N(C(CO)CO)C4=O)ccc21
3. Cc1ccc(/C=N/Nc2ccc3c4c(cccc24)C(=O)N(C(CO)CO)C3=O)cc1
4. O=C1c2cccc3c(N/N=C/c4ccc(F)cc4F)ccc(c23)C(=O)N1C(CO)CO
5. O=C1c2cccc3c(N/N=C/c4ccc(Cl)cc4)ccc(c23)C(=O)N1C(CO)CO
6. O=C1c2cccc3c(N/N=C/c4ncc[nH]4)ccc(c23)C(=O)N1C(CO)CO

## Result
32
64
64
256
128
64
